System: NCI-H522 lung
ASSAY_REMARKS: NCI-60 one-dose screen, 48 h
COND: 10 µM unless noted
This is part of a sample that, as a whole, favours compounds with a hit. Of some 83,000 tested, about 20% had one in any assay. The source made the active and inactive calls. How the source made its calls: active means growth percent below 10; inactive means the rest.
Valid outcomes are listed here; reply with one: active, inactive

Recorded results for 3 compounds are shown here.
{"COMPOUND": "COc1ccc2c(c1)OC13Oc4cc(OC)ccc4C=C1CCCC3=C2", "EXPERIMENTAL_TARGET": "NCI-H522 lung", "GROUP": "inactive"}
{"COMPOUND": "COc1cc(/C=C2\\C(=O)N(Cc3ccc(Cl)cc3)c3ccccc32)cc(OC)c1OC", "EXPERIMENTAL_TARGET": "NCI-H522 lung", "GROUP": "inactive"}
{"COMPOUND": "Fc1ccc(C2CC(c3cccc(Nc4ccncc4)c3)=NN2c2cc(Cl)cc(Cl)c2)cc1 (centres undefined)", "EXPERIMENTAL_TARGET": "NCI-H522 lung", "GROUP": "inactive"}

Prompt: Call for entry C=C(C)[C@@H]1CC[C@]2(C(=O)NCC(=O)OC)CC[C@]3(C)[C@H](CC[C@@H]4[C@@]5(C)Cc6c([nH]c7ccccc67)C(C)(C)[C@@H]5CC[C@]43C)[C@@H]12 :
Completion: inactive

Prompt: Call for entry C=C1C(=O)O[C@H]2[C@H]1CC/C(COC(=O)CCCc1c[nH]c3ccccc13)=C\CC[C@@]1(C)O[C@@H]21 :
Completion: inactive

Prompt: Call for entry CCN(CC)CCCC(C)Nc1c2c(nc3ccc(OC)cc13)CCCC2 (centres undefined) :
Completion: inactive

Prompt: Call for entry O=C(O)c1ccc[n+](CC(=O)N2CCN(c3cc4c(cc3F)c(=O)c(C(=O)O)cn4C3CC3)CC2)c1 :
Completion: active

Prompt: Call for entry O=c1[nH]c(=O)[nH]c(=S)[nH]1 :
Completion: inactive

Prompt: Call for entry Nc1ncc(C#Cc2cncc(NC(=O)c3cccc(C(F)(F)F)c3)c2)c2cccnc12 :
Completion: inactive

----------
Tested on: NCI-H322M lung
ASSAY_REMARKS: NCI-60 one-dose screen, 48 h
COND: 10 µM unless noted
This is part of a sample that, as a whole, favours compounds with a hit. Of some 83,000 tested, about 20% had one in any assay. Active and inactive are the calls of the source. How the source made its calls: active means growth percent below 10; inactive means the rest.
Valid outcomes are listed here; reply with one: active, inactive

Recorded results for 2 molecules are shown here.
{"MOLECULE": "COc1cc(CCNc2nc3cc(N)cc(N)c3nc2-c2ccccc2)cc(OC)c1", "GROUP": "inactive"}
{"MOLECULE": "NC(=S)N/N=C/c1ccc(OC(=O)COc2cc(Cl)c(Cl)cc2Cl)cn1", "GROUP": "inactive"}

Prompt: Call for entry CCCCCCCCOc1ccc(/C=N/Nc2cc(C)nc3ccc(Cl)cc23)cc1 :
Completion: inactive

Prompt: Call for entry COc1cc(-c2nc3occn3c2-c2ccnc(NCCNS(=O)(=O)c3ccc(Cl)cc3)n2)ccc1F :
Completion: inactive

Prompt: Call for entry N#CSCC1CC(O)(c2ccccc2)C(c2ccccc2)C(c2ccc(F)cc2)O1 (stereo not given) :
Completion: inactive

Prompt: Call for entry COc1ccc2c(Nc3ccc(NS(C)(=O)=O)cc3)c3ccccc3nc2c1 :
Completion: active

Prompt: Call for entry O=C(Nc1ccc2cc3ccc(NC(=O)N4CCCCCC4)cc3nc2c1)N1CCCCCC1 :
Completion: inactive

Prompt: Call for entry CCc1nc(C)cn1C(=O)OCc1nc2nc(Cl)nc(N3CCOCC3)c2[nH]1 :
Completion: inactive

Prompt: Call for entry Clc1ccc(C2CC(c3cccc(Nc4ccncc4)c3)=NN2c2ccc(Cl)cc2)cc1 (stereo not given) :
Completion: inactive

Prompt: Call for entry Clc1ccc(C2CC(c3cccc(Nc4ccncc4)c3)=NN2c2cc(Cl)cc(Cl)c2)cc1 (stereo not given) :
Completion: inactive

Prompt: Call for entry CC(=O)[C@@H]1CC[C@]2(C(=O)n3ccnc3)CC[C@]3(C)[C@H](CC[C@@H]4[C@@]5(C)Cc6c([nH]c7ccccc67)C(C)(C)[C@@H]5CC[C@]43C)[C@@H]12 :
Completion: inactive

Prompt: Call for entry O=C1C(=O)c2c(nc3ncccn23)-c2ccccc21 :
Completion: active

Prompt: Call for entry CCCCCN1C=C/C(=C\C(=O)N(C)c2cccc3ccccc23)c2ccccc21 :
Completion: inactive

Prompt: Call for entry CCOC(=O)c1cnc2c(cnn2CC)c1NN=C(C)C :
Completion: inactive

Prompt: Call for entry Cc1c(C2=CCCCC2)c2ccccn2c1C(=O)c1cccc(S(=O)(=O)N2CCOCC2)c1 :
Completion: inactive

Prompt: Call for entry CC(=O)N1c2ccccc2NC2=C(C(=O)N(C)C2(C)C)C1C (stereo not given) :
Completion: inactive

Prompt: Call for entry COc1ccc2c(/C=C3/C(=O)NC(=S)NC3C)cc(=O)oc2c1 (stereo not given) :
Completion: inactive
